Assay: yeast display, Sf9 membrane polyspecificity reagent, FACS + sequencing; frameworks hold sequencing errors
property: polyreactivity (PSR sort gate)

For orientation, consider the following solved cases.
QVQLVESGGGLVLAGGSLRLSCAASGRTFKKYAMGWYRQAPGKVRELVAAITSGGSTYYADSVKGRFTISRDNAKNTVYLQMNSLKPEDTAVYYCAAASSQHGNTYYYWGQATQVTVSS :: high polyreactivity
QVQLVESGGGLVQAGGSLRLSCAASGSTFAYYAMGWYRQAPGKERELVAAISSGGSTYYADSVKGRFTISRDNAKNTVYLQMNSLKPEDTAVYYCNKLWVGKFKRYEFGYWGQGTQVTVSS :: low polyreactivity
QVQLVESGGGLDQAGGSLRLSCAASGSTFLHYAMGWYRQAPRKERELVAAISFSGVRTYYADSVKGRFTISRDNAKNTVYLQMNSLKPEDTAVFYCAADGHHADYDYWGQGTQVTVSS :: low polyreactivity
QVQLVESVGGLFQAGRSLRLSGAASGTTFVWNAMGWYRPAPGKERELVATITLSTGSTYYADSVKGRFTISRDNAKNSVYLQMNSLKPEDTAVYYGNTEIYVDIISDYGYWGQGTQVTVSS :: low polyreactivity
QVQIVESGGGLVQAGGSLRLSCAASGRTLYQYSMGWYRQAPGKERELVAAITTSTGNTYYADSVKARFTISRDNAKYTVYSQMNSLKPEDTAVYYCAADTVWRLDYWGQGTQVTVSS :: low polyreactivity

Ask: Need polyreactivity (PSR sort gate), item `QVQLVESGGGLDQAGGSLRLSCDASGRIFGYYAMGWYRQAPGKERELVAAITWTGGGTYYADSVKGRFTISRDNAKNTVYIQMNSLKPEDTAVYYCAADPDSGQFPFDYWGQGTQVTVSS`
Reply: low polyreactivity

Ask: Need polyreactivity (PSR sort gate), item `QVQLVESGGGLVQAGGSLRLSCAASGSISKSYAMGWYRQAPGKERELVAVITSGGNTYYADSVKGRFTISRDNAKNTVYLQMNSLKPEDTAVYYCAADYHWYTEDDYWGQGTQVTVSS`
Reply: high polyreactivity

Ask: Need polyreactivity (PSR sort gate), item `QVQLVESGGGLVQAGRSLRLSCAASGFIFDWNAMGWYRQAPGKERELVAAISWSGGRTYYADSVKGRFTISRDNAKNTVYLQMNSLKPEDTAVYYCNARRYFSRDTSGYNYWGQGTQVTVSS`
Reply: high polyreactivity

Ask: Need polyreactivity (PSR sort gate), item `QVQLVESGAGLVQAGGSLRLSCAASGRTLTYNAMGWYRQAPGKEREFVAAISVGGGSTYADSVKGRFTISRDNAKNTVYLQMNRLKPEDTAVYYCAAAYTKLYYYWGQGTQVTVSS`
Reply: low polyreactivity

Ask: Need polyreactivity (PSR sort gate), item `QVQLVESGGGLVQAGGSLRLSCAASGRIFYSNAMGWYRQAPGKERELVATITYYADSVKGRFTISRDNAKNTVYLQMNSLKPEDTSVYYCAAVYLYYSRSDLYDYWGQGTQVTVSS`
Reply: low polyreactivity

Ask: Need polyreactivity (PSR sort gate), item `QVQLVESGRGLVQAGGTLRLSCAASGFIFATNTMGWYRQAPGKERELVAASSTYYADSVKGRFTISRDNAKNTVYLQMNSLKPEDTAVYYCNADRDSYIGFVDWAGEYWGQGTQVTVSS`
Reply: low polyreactivity
